# System: E. coli ELZ4251
# ASSAY_EXPLANATION: Antibacterial activity, MIC, multi-drug resistant clinical isolate (Table 3)
# Type: cell-based
# CONDITION_CONTEXT: Escherichia coli
# Source text: The antibacterial activity from a microbroth dilution method may be presented as the minimum inhibitory concentration (MIC in μg/mL). The MIC value is the lowest concentration of drug which prevents macroscopically visible growth under test conditions. Antibacterial activity of test compounds against E. coli ELZ4000 and E. coli ELZ4251 multi-drug resistant clinical isolates is shown in Table 3.
PROPERTY_LABEL: MIC

| COMPOUND | MEASURED_TARGET | MIC |
| --- | --- | --- |
| CCc1cc(C(=O)O)c(=O)[nH]c1-c1ccc2c(c1)cc(CN1CCCCC1)n2C [Cpd 133] | E. coli ELZ4251 | 12.5 to 150 µg/mL |
| CCc1c(-c2ccc3c(c2)cc(CNC(C)C)n3C)[nH]c(=O)c(C(=O)O)c1O [Cpd 199] | E. coli ELZ4251 | 3.5 to 12.5 µg/mL |
| CCc1c(-c2ccc3c(c2)cc(CN2CCC(N(C)C)CC2)n3C)[nH]c(=O)c(C(=O)O)c1O [Cpd 248] | E. coli ELZ4251 | 12.5 to 150 µg/mL |

Consider now this further compound.
I would be grateful if you could share the reported MIC for CCc1c(-c2ccc3c(c2)cc(CN2CCCN(C)CC2)n3C)[nH]c(=O)c(C(=O)O)c1O.Cl.Cl [Cpd 238] .
12.5 to 150 µg/mL

----------
Reported MIC values for the following compounds.
# System: Haemophilus influenzae (H. influenzae) 49247

| COMPOUND | MIC |
| --- | --- |
| CCc1c(-c2ccc3c(c2)cc(CN2CC[C@H](N)C2)n3C)[nH]c(=O)c(C(=O)O)c1O [Cpd 180] | 1 to 3.5 µg/mL |
| CCc1c(-c2ccc3c(c2)cc(CN2C[C@H]4CCC[C@@H](NC)[C@H]4C2)n3C)[nH]c(=O)c(C(=O)O)c1O [Cpd 282] | 1 to 3.5 µg/mL |
| CCc1c(-c2ccc3c(c2)cc(CN2CCNCC2)n3C)[nH]c(=O)c(C(=O)O)c1O [Cpd 171] | 1 to 3.5 µg/mL |
| CCc1c(-c2ccc3c(c2)cc(CN)n3C)[nH]c(=O)c(C(=O)O)c1O [Cpd 290] | 1 to 3.5 µg/mL |
| Cc1c(-c2ccc3c(c2)cc(CN(C)C)n3C)[nH]c(=O)c(C(=O)O)c1O [Cpd 314] | 1 to 3.5 µg/mL |
| CCc1c(-c2ccc3c(c2)cc(CNC2CCCC2)n3C)[nH]c(=O)c(C(=O)O)c1O.Cl [Cpd 229] | < 1 µg/mL |

Quick one: MIC of CCc1c(-c2ccc3c(c2)CCCN3C)[nH]c(=O)c(C(=O)O)c1O [Cpd 2] ?
< 1 µg/mL

----------
# Tested on: Haemophilus influenzae (H. influenzae) 49247
PROPERTY_LABEL: MIC

Recorded MIC, per entry:
| COMPOUND | MIC |
| --- | --- |
| CCc1c(-c2ccc3c(c2)cc2n3CCNC2)[nH]c(=O)c(C(=O)O)c1O [Cpd 305] | < 1 µg/mL |
| CCc1c(-c2ccc3c(c2)cc(CNC(C)C)n3C)[nH]c(=O)c(C(=O)O)c1O [Cpd 199] | < 1 µg/mL |
| CCc1c(-c2ccc3c(c2)cc(CNCC2CCC2)n3C)[nH]c(=O)c(C(=O)O)c1O.Cl [Cpd 235] | < 1 µg/mL |
| CCc1c(-c2ccc3c(c2)cc(CN2CC(O)C2)n3C)[nH]c(=O)c(C(=O)O)c1O [Cpd 187] | < 1 µg/mL |

Fill in the recorded MIC for this compound, with Haemophilus influenzae (H. influenzae) 49247 as test system: CCc1c(-c2ccc3c(c2)cc(CN2CC(N(C)C)C2)n3C)[nH]c(=O)c(C(=O)O)c1O [Cpd 189]
< 1 µg/mL

Short answer please: MIC, Haemophilus influenzae (H. influenzae) 49247, entry CCc1c(-c2ccc3c(c2)cc(CN2CCC(N(C)C)CC2)n3C)[nH]c(=O)c(C(=O)O)c1O [Cpd 248]
< 1 µg/mL

Record lookup: for Haemophilus influenzae (H. influenzae) 49247, what MIC belongs to CCc1cc(C(=O)O)c(=O)[nH]c1-c1ccc2c(c1)OCCN2C [Cpd 3] ?
< 1 µg/mL

Short answer please: MIC, Haemophilus influenzae (H. influenzae) 49247, entry CCc1c(-c2ccc3c(c2)cc(CN2CCCCC2)n3C)[nH]c(=O)c(C(=O)O)c1O [Cpd 192]
< 1 µg/mL
